Experiment: soluble on expression in E. coli; label from the status in PepcDB or PDB records

{"seq string": "MGSDKIHHHHHHMINQVYQLVAPRQFDVTYNNVDIYGNHVIVRPLYLSICAADQRYYTGRRDENVLRKKLPMSLVHEAVGEVVFDSKGVFEKGTKVVMVPNTPTEQHHIIAENYLASSYFRSSGYDGFMQDYVVMAHDRIVPLPNDIDLSTISYTELVSVSYHAIQRFERKSIPLKNSFGIWGDGNLGYITAILLRKLYPEAKIYVFGKTDYKLSHFSFVDDIFTVNQIPDDLKIDHAFECVGGKGSQVALQQIVEHISPEGSIALLGVSELPVEVNTRLVLEKGLTLIGSSRSGSKDFEQVVDLYRKYPDIVEKLALLKGHEINVCTMQDIVQAFEMDLSTSWGKTVLKWTI", "soluble on expression in E. coli": "not soluble"}
{"seq string": "LKVLKRFDIETDYGSAIIADTITGRIEYTVATGGCIFPEVSRTIQTLENMGASVFIASGDSRKFIERLGNIVGVQNKCLMPEAHHKLKRDLILNLKQDGYTVIMVGDASNDILAMEESDLSVITLQNGNVSKKALETAQIKIENISEI", "soluble on expression in E. coli": "not soluble"}
{"seq string": "QSGHTKKINDKEMLDYKGRIPVGTLTLKFDQPVKDPILDFSGLGGYNIFSAHHEEASHEGIRNWEVRNGKIVVTGESASVVGAQINDQIRGSFNHTDLELETPGVKLVELAKNSNLKVDDRSISTVAANNDYVCNTPNDYQTLPEELENGPSYEQNDAFLSPVMKPAGCGSVLAQGEFSELKFTLFSSVEPMSSFAHDTHKTGLLYFAGGVNGGNANPVTPIPMLEGYSKPQEVSDTSNGDLFRMSIRLPEEPVKGSVSVGDFVWIDKDADGRQDDNEPGLAGVKLWLYGPDGGPVTDVHGKVVKSVTTGEDGKYSFKDLPVLTGSDSYTVKVVDVPAGYKPTLSGTGKVPAFKDSSTDLAKSTPGALSENGAQDLTLDFGFVKESATPSDPTVPGFK", "soluble on expression in E. coli": "not soluble"}

* * *

Test: soluble on expression in E. coli; label from the status in PepcDB or PDB records

{"seq string": "MKKKNVVVFGGGTGLSVLLRGLKTFPVSITAIVTVADDGGSSGRLRKELDIPPPGDVRNVLVALSEVEPLLEQLFQHRFENGNGLSGHSLGNLLLAGMTSITGDFARGISEMSKVLNVRGKVLPASNRSIILHGEMEDGTIVTGESSIPKAGKKIKRVFLTPKDTKPLREGLEAIRKADVIVIGPGSLYTSVLPNLLVPGICEAIKQSTARKVYICNVMTQNGETDGYTASDHLQAIMDHCGVGIVDDILVHGEPISDTVKAKYAKEKAEPVIVDEHKLKALGVGTISDYFVLEQDDVLRHNASKVSEAILEGKPRTSSSIQAAALEHHHHHH", "soluble on expression in E. coli": "soluble"}
{"seq string": "MSEILVLNCGSSSVKFALINPHTSQSLVTGLAENIATKNCKVVFKAEHKIVKYLENGSYKDVFEMLKDFLVENKHLEKIVAIGHRVVHGGQYFSKSVLINADSLEKIKACIALAPLHNPAHIEGIRFCQQIFPELPQVAVFDTAFHQTMPSYIAEYAIPYELTHKHNIRKYGAHGTSHKYVSEQAAKILTQQKANVIVAHLGNGCSITAVVDGKSIDTSMGLTPLDGLVMGTRSGCIDPSIFAYISDNLGWSVTEITNMLNKQSGLLGICGHNDMREVSQLAAKGDSLAKLAIEIFSHRVAKFVASYMIYFNKLDALVFTGGIGENAANIRKNIISKLANLGFMIDHQKNSNSETFINSKNSHNIMVIATNEELMIAQETQNLI", "soluble on expression in E. coli": "soluble"}
{"seq string": "GPGSMKSPHMARIGNSVYRDICPEDDPLCSNFGFEDYDLSRPTPMMRMSLLYNLHVSGESPSPAIDNMFRLAYRSRHGLVKIYKVMNVSAESKAWVADPKNRKCDAPGSWLCTGQYPPAKEIQEMLARRIDYGQLEDFNRGKRDDAYYRAYMRRIRNQGRG", "soluble on expression in E. coli": "soluble"}
